Origin of values: patent EP0595557A1

# TARGET_SYSTEM: Human Polymorphonuclear Leukocyte Elastase (Homo sapiens)
# Construct: Crude extract of human polymorphonuclear leukocytes (PMN) containing elastase activity; from tissue; host or cells: human polymorphonuclear leukocytes (crude extract)
# PROTOCOL_TEXT: Enzyme assay for inhibition of human polymorphonuclear leukocyte elastase via hydrolysis of Boc-AAPAN or Boc-AAPVN
# Assay type: biochemical
# CONDITION_CONTEXT: pH 7.5, second order rate constant for inactivation of the enzyme, expressed to the nearest thousand, read-out: Kobs/[I]
OBSERVED_PROPERTY: kinact/KI (M⁻¹ s⁻¹)
Response body: numeric value in M⁻¹ s⁻¹, unit text excluded.

Previously resolved entries follow.
# COMPOUND, OBSERVED_PROPERTY, NUMBER
data = [
    ("CCC[C@@H](NC(=O)N1C(=O)C(CC)(CC)[C@@H]1Oc1ccc(CC(=O)N(C)CCCC(=O)NS(=O)(=O)c2ccccc2)cc1)c1ccc(C)cc1", "kinact/KI", "1.34e+06"),
    ("CCC[C@@H](NC(=O)N1C(=O)C(CC)(CC)[C@@H]1Oc1ccc(C(=O)N(C)CC(OC(C)=O)C(OC(C)=O)C(OC(C)=O)C(COC(C)=O)OC(C)=O)cc1)c1ccc(C)cc1 (stereo partly drawn)", "kinact/KI", "1.17e+06"),
    ("CCC[C@@H](NC(=O)N1C(=O)C(CC)(CC)[C@@H]1Oc1ccc(C(=O)N(CC)CC)cc1)c1ccc(C(=O)N2CCOCC2)cc1", "kinact/KI", 566000),
    ("CCC[C@@H](NC(=O)N1C(=O)C(CC)(CC)[C@@H]1Oc1ccc(CC(=O)N(C)CCN(C)C)cc1)c1ccc(OC)cc1", "kinact/KI", 754000),
]

Kindly note: Human Polymorphonuclear Leukocyte Elastase (Homo sapiens), `CCC[C@@H](NC(=O)N1C(=O)C(CC)(CC)[C@@H]1Oc1ccc(CC(=O)NOCc2ccccc2)cc1)c1ccc(C)cc1` , kinact/KI value reported: 2.37e+06

GET /values?item= `CCC[C@@H](NC(=O)N1C(=O)C(CC)(CC)[C@@H]1Oc1ccc(C(=O)NCC(=O)O)cc1)c1ccc(C)cc1` &system= Human Polymorphonuclear Leukocyte Elastase (Homo sapiens) returns kinact/KI: 1.43e+06

Form field, kinact/KI with Human Polymorphonuclear Leukocyte Elastase (Homo sapiens), item CCC[C@@H](NC(=O)N1C(=O)C(CC)(CC)[C@@H]1Oc1ccc(C(=O)NC(C)[PH](=O)O)cc1)c1ccc(C)cc1 (stereo partly drawn) : 977000

---

# TARGET_SYSTEM: Human Polymorphonuclear Leukocyte Elastase (Homo sapiens, UniProt P08246)
# Construct: Crude extract of human polymorphonuclear leukocytes (PMN) containing elastase activity; from tissue; host or cells: human polymorphonuclear leukocytes (crude extract)
# PROTOCOL_TEXT: Enzyme assay for inhibition of human polymorphonuclear leukocyte elastase via hydrolysis of Boc-AAPAN or Boc-AAPVN
# Type: biochemical
# CONDITION_CONTEXT: pH 7.5, second order rate constant for inactivation of the enzyme, expressed to the nearest thousand, read-out: Kobs/[I]
OBSERVED_PROPERTY: kinact/KI (M⁻¹ s⁻¹)
Respond numerically; units are M⁻¹ s⁻¹ and should not be typed.

Memo: `CCC[C@@H](NC(=O)N1C(=O)C(CC)(CC)[C@@H]1Oc1ccc(C(=O)N(C)CCN(C)Cc2ccc(C)cc2)cc1)c1ccc(C)cc1` , reported kinact/KI: 1.87e+06

kinact/KI in this record for CCC[C@@H](NC(=O)N1C(=O)C(CC)(CC)[C@@H]1Oc1ccc(C(=O)N2CCC(N(C)C)C2)cc1)c1ccc(C)cc1 (stereo partly shown) : 1.34e+06

kinact/KI measured on `CCC[C@@H](NC(=O)N1C(=O)C(CC)(CC)[C@@H]1Oc1ccc(C(=O)N2CCN(CC)CC2)cc1)c1ccc(C)cc1` = 2.32e+06

Recorded result, `CCC[C@@H](NC(=O)N1C(=O)C(CC)(CC)[C@@H]1Oc1ccc(C(=O)N(CCN(C)C)CCN(C)C)cc1)c1ccc(C)cc1` , kinact/KI: 1.88e+06

Kindly note the recorded kinact/KI for `CCC[C@@H](NC(=O)N1C(=O)C(CC)(CC)[C@@H]1Oc1ccc(CC(N)=O)cc1)c1ccc2c(c1)OCO2` , which is 2.34e+06

The recorded kinact/KI for `CCC[C@@H](NC(=O)N1C(=O)C(CC)(CC)[C@@H]1Oc1ccc(C(=O)N(C)CCc2c[nH]cn2)cc1)c1ccc(C)cc1` is 2.39e+06

Form: compound = `CCC[C@@H](NC(=O)N1C(=O)C(CC)(CC)[C@@H]1Oc1ccc(C(=O)N(C)C2CCN(C)CC2)cc1)c1ccc(C)cc1` ; kinact/KI = 1.28e+06

Sure, the documented kinact/KI for `CCC[C@@H](NC(=O)N1C(=O)C(CC)(CC)[C@@H]1Oc1ccc(C(=O)NCCN(C(C)C)C(C)C)cc1)c1ccc(C)cc1` is 2.1e+06

kinact/KI recorded for this compound, `CCC[C@@H](NC(=O)N1C(=O)C(CC)(CC)[C@@H]1Oc1ccc(CC(=O)NCCCN(C)C)cc1)c1ccc(C)cc1` , is 1.12e+06

---

# TARGET_SYSTEM: Human Polymorphonuclear Leukocyte Elastase (Homo sapiens)
# Construct: Crude extract of human polymorphonuclear leukocytes (PMN) containing elastase activity; from tissue; host or cells: human polymorphonuclear leukocytes (crude extract)
# Sequence (P08246 30-267): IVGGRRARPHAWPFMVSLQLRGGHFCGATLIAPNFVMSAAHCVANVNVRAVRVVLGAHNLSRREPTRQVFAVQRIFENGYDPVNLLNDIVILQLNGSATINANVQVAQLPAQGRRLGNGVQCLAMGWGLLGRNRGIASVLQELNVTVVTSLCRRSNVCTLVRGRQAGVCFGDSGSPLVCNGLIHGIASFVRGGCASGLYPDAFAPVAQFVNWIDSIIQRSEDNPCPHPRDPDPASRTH
# PROTOCOL_TEXT: Enzyme assay for inhibition of human polymorphonuclear leukocyte elastase via hydrolysis of Boc-AAPAN or Boc-AAPVN
# Type: biochemical
# CONDITION_CONTEXT: pH 7.5, second order rate constant for inactivation of the enzyme, expressed to the nearest thousand, read-out: Kobs/[I]
Entries annotated with measured kinact/KI
I only need the number, in M⁻¹ s⁻¹, no unit after it.

The examples below pair each entry with its known result.
# COMPOUND, RESULT_UNITS, kinact/KI
records = [
    ("CCC[C@@H](NC(=O)N1C(=O)C(CC)(CC)[C@@H]1Oc1ccc(C(=O)N(C)CCN(C)Cc2ccccc2)cc1)c1ccc2c(c1)OCO2 [Compound 264]", "M⁻¹ s⁻¹", "3.43e+06"),
    ("CCCC(NC(=O)N1C(=O)C(CC)(CC)C1Oc1ccc(C(=O)OCC(=O)O)cc1)c1ccc(C)cc1 (stereo not shown) [Compound 2]", "M⁻¹ s⁻¹", "1.67e+06"),
    ("CCC[C@@H](NC(=O)N1C(=O)C(CC)(CC)[C@@H]1Oc1ccc(C(=O)NCCn2ccnc2)cc1)c1ccc(C)cc1 [Compound 97]", "M⁻¹ s⁻¹", "1.07e+06"),
    ("CCC[C@@H](NC(=O)N1C(=O)C(CC)(CC)[C@@H]1Oc1ccc(C(=O)OCCN(C)C)cc1)c1ccc(C(=O)N2CCOCC2)cc1 [Compound 278]", "M⁻¹ s⁻¹", 135000),
]

Reported kinact/KI of CCC[C@@H](NC(=O)N1C(=O)C(CC)(CC)[C@@H]1Oc1ccc(C(=O)N(C)CCNC)cc1)c1ccc(C)cc1 [Compound 92] : 1.45e+06

For record CCC[C@@H](NC(=O)N1C(=O)C(CC)(CC)[C@@H]1Oc1ccc(C(=O)N(C)CCN(C)C(=O)NC)cc1)c1ccc(C)cc1 [Compound 106] the listed kinact/KI is 2.49e+06

Entry CCC[C@@H](NC(=O)N1C(=O)C(CC)(CC)[C@@H]1Oc1ccc(C(=O)N(C)CCN(C)C2CCC3CCC2C3)cc1)c1ccc(C)cc1 (stereo partly shown) [Compound 223] , kinact/KI reported as 2.58e+06

Record summary for CCC[C@@H](NC(=O)N1C(=O)C(CC)(CC)[C@@H]1Oc1ccc(C(=O)N(CCN(C)Cc2ccccc2)Cc2ccccn2)cc1)c1ccc(C)cc1 [Compound 194] : reported kinact/KI = 2.47e+06

---

# TARGET_SYSTEM: Human Polymorphonuclear Leukocyte Elastase (Homo sapiens)
# Construct: Crude extract of human polymorphonuclear leukocytes (PMN) containing elastase activity; from tissue; host or cells: human polymorphonuclear leukocytes (crude extract)
# Sequence (P08246 30-267): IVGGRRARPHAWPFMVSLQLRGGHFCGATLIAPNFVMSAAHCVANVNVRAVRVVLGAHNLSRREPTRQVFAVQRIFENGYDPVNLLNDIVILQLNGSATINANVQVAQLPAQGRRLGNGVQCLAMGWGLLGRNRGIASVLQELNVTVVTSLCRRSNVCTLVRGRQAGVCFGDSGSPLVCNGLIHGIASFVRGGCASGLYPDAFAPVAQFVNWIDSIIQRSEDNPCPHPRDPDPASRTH
# PROTOCOL_TEXT: Enzyme assay for inhibition of human polymorphonuclear leukocyte elastase via hydrolysis of Boc-AAPAN or Boc-AAPVN
# Type: biochemical
# CONDITION_CONTEXT: pH 7.5, second order rate constant for inactivation of the enzyme, expressed to the nearest thousand, read-out: Kobs/[I]
Known kinact/KI of a selection of compounds
Answer with a number only, understood to be in M⁻¹ s⁻¹.

# COMPOUND, RESULT_UNITS, kinact/KI
data = [
    ("CCCC(NC(=O)N1C(=O)C(CC)(CC)C1Oc1ccc(C(=O)NCC(=O)N2CCCC2C(=O)NCc2ccccc2)cc1)c1ccc(C)cc1 (stereo not shown) [Compound 102]", "M⁻¹ s⁻¹", "2.75e+06"),
    ("C=CC(C)(C)NCCN(C)C(=O)c1ccc(O[C@@H]2N(C(=O)N[C@H](CCC)c3ccc(C)cc3)C(=O)C2(CC)CC)cc1 [Compound 226]", "M⁻¹ s⁻¹", "1.31e+06"),
    ("CCC[C@@H](NC(=O)N1C(=O)C(CC)(CC)[C@@H]1Oc1ccc(C(=O)NC(C)CCCN(CC)CC)cc1)c1ccc(C)cc1 (stereo partly shown) [Compound 140]", "M⁻¹ s⁻¹", "1.36e+06"),
    ("CCC[C@@H](NC(=O)N1C(=O)C(CC)(CC)[C@@H]1Oc1ccc(C(=O)N(C)CC[N+](C)([O-])Cc2ccccc2)cc1)c1ccc(C)cc1 (stereo partly shown) [Compound 147]", "M⁻¹ s⁻¹", "2.49e+06"),
    ("CCC[C@@H](NC(=O)N1C(=O)C(CC)(CC)[C@@H]1Oc1cc(C)c(C(=O)OCCN(CC)CC)c(C)c1)c1ccc(C)cc1 [Compound 305]", "M⁻¹ s⁻¹", 749000),
    ("CCC[C@@H](NC(=O)N1C(=O)C(CC)(CC)[C@@H]1Oc1ccc(C(=O)N(CC)CC)cc1)c1ccc(C)cc1 [Compound 128]", "M⁻¹ s⁻¹", "1.45e+06"),
    ("CCC[C@@H](NC(=O)N1C(=O)C(CC)(CC)[C@@H]1Oc1ccc(CC(=O)NCC(=O)N(CCO)CCO)cc1)c1ccc(C)cc1 [Compound 49]", "M⁻¹ s⁻¹", "1.3e+06"),
    ("CCC[C@@H](NC(=O)N1C(=O)C(CC)(CC)[C@@H]1Oc1ccc(C(=O)N(C)CCN(C)C)cc1)c1ccc(Cl)cc1 [Compound 299]", "M⁻¹ s⁻¹", "1.48e+06"),
    ("CCC[C@@H](NC(=O)N1C(=O)C(CC)(CC)[C@@H]1Oc1ccc(CC(N)=O)cc1)c1ccc(C(=O)N2CCOCC2)cc1 [Compound 274]", "M⁻¹ s⁻¹", 430000),
    ("CCC[C@@H](NC(=O)N1C(=O)C(CC)(CC)[C@@H]1Oc1ccc(CC(=O)N(CC)CC)cc1)c1cccc(C(=O)N2CCOCC2)c1 [Compound 267]", "M⁻¹ s⁻¹", 334000),
]

Value of kinact/KI reported for the compound CCC[C@@H](NC(=O)N1C(=O)C(CC)(CC)[C@@H]1Oc1ccc(C(=O)N(C)C2CCN(CCC)CC2)cc1)c1ccc(C)cc1 [Compound 216] is 1.31e+06

So for CCC[C@@H](NC(=O)N1C(=O)C(CC)(CC)[C@@H]1Oc1ccc(C(=O)N(C)CCN(C)C2C3CC4CC(C3)CC2C4)cc1)c1ccc(C)cc1 (stereo partly shown) [Compound 210] , the logged kinact/KI turned out to be 2.13e+06

Reported kinact/KI for CCCC(NC(=O)N1C(=O)C(CC)(CC)C1Oc1ccc(C(=O)NCCN(C)C)cc1)c1ccc(C)cc1 (stereo not shown) [Compound 73] was 968000
